Reported FRET assay vi (U/min), periplasmic extract values follow for various binders
TARGET_DESC: T1, recombinant human ADAMTS5 (R&D Systems cat #2198-AD) (human, UniProt Q9UNA0 262-622, limits assumed)
T1 sequence: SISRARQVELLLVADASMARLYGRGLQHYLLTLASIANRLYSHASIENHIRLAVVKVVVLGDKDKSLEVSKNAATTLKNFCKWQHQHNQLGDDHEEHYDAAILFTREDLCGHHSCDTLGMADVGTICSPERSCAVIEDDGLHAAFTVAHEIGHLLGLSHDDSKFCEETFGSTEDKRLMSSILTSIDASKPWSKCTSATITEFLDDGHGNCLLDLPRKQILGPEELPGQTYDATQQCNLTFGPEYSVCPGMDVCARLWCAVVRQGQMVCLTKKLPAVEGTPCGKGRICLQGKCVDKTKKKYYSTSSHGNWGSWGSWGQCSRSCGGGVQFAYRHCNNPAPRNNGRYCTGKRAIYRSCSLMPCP
ASSAY_NAME: cell-based or functional assay
State just the number; it will be interpreted in U/min.

binder="Nanobody 3D02 (VHH, tagged as tested (anti-Flag detection, IMAC); also called 03D02) VHH: EVQLVESGGGLVQAGASLRLSCATSGFTFSPYYMGWFRQAPGKERDFVAAISWSRGILYYTDSTEGRFTISRDNAKNTMYLQMDNLNPEDTAVYYCAASRSPGDPSRTYLYDYWGQGTLVTVSS" unit_spec=U/min test_value=-2
binder="Nanobody 11B06 (VHH, tagged as tested (anti-Flag detection, IMAC)) VHH: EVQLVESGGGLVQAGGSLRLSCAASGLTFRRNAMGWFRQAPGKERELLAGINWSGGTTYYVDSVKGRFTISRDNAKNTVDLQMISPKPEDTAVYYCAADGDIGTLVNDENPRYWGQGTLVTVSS" unit_spec=U/min test_value=-1
binder="Nanobody 2A02 (VHH, tagged as tested (anti-Flag detection, IMAC); also called 02A02) VHH: EVQLVESGGGLVQPGGSLRLSCAASRRTFSSYVMAWFRQAPGKEREFVAAISRSGDSTYYYDSLEGRFTISRDNAKNTVHLQMNSLKPEDTAVYICAASRAPSFRTIDAINYYDYWGQGTLVTVSS" unit_spec=U/min test_value=2

Look up FRET assay vi (U/min), periplasmic extract for this binder: Nanobody 9D03 (VHH, tagged as tested (anti-Flag detection, IMAC); also called 09D03; 9D3) VHH: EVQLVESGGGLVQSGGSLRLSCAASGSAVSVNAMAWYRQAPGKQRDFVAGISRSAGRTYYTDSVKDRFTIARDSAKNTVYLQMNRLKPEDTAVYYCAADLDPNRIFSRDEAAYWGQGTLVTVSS
-2
